- MEASURED_ON: HLA-A*01:01
- ASSAY_NAME: IEDB peptide-MHC binding, purified MHC/competitive/radioactivity; filed as Kd, often an IC50 or EC50 that approximates it; bounds were set here for any values at or beyond the usual limits of such assays
- STATED_CONDITIONS: source organism: Triticum aestivum
EXPERIMENTAL_ENDPOINT: Kd

Bench note: what Kd did QYPLGQGSF show?
≥ 71 µM

* * *

- MEASURED_ON: HLA-B*37:01
- ASSAY_NAME: IEDB peptide-MHC binding, purified MHC/competitive/fluorescence; bounds were set here for any values at or beyond the usual limits of such assays
- STATED_CONDITIONS: source organism: Homo sapiens
pIC50: −log10 of the molar value.
EXPERIMENTAL_ENDPOINT: pIC50

Bench note: what pIC50 did LPSCPTNFCIF show?
≤ 4.70

* * *

- MEASURED_ON: HLA-B*57:01
- ASSAY_NAME: IEDB peptide-MHC binding, purified MHC/competitive/radioactivity; filed as Kd, often an IC50 or EC50 that approximates it; bounds were set here for any values at or beyond the usual limits of such assays
- STATED_CONDITIONS: source organism: Dengue virus 4 Dominica/814669/1981
EXPERIMENTAL_ENDPOINT: Kd (µM)
Give just the number in µM; leave the unit off.

Bench note: what Kd did GASRRSWPLN show?
12.8

* * *

Could you please report measured Kd for the items listed next?
- MEASURED_ON: HLA-B*45:01
- ASSAY_NAME: IEDB peptide-MHC binding, purified MHC/competitive/radioactivity; filed as Kd, often an IC50 or EC50 that approximates it; bounds were set here for any values at or beyond the usual limits of such assays
- STATED_CONDITIONS: source organism: Mammarenavirus guanaritoense
Give just the number in µM; leave the unit off.

Bench note: what Kd did EDFLLMYEM show?
4.64

Bench note: what Kd did AEAYCTGML show?
1.38

* * *

- MEASURED_ON: HLA-B*57:01
- ASSAY_NAME: IEDB peptide-MHC binding, purified MHC/competitive/fluorescence; filed as Kd, often an IC50 or EC50 that approximates it; bounds were set here for any values at or beyond the usual limits of such assays
- STATED_CONDITIONS: source organism: Helicobacter pylori 26695
EXPERIMENTAL_ENDPOINT: Kd

Bench note: what Kd did GIVCYNEEV show?
≥ 20 µM

* * *

- MEASURED_ON: HLA-A*30:02
- ASSAY_NAME: IEDB peptide-MHC binding, purified MHC/competitive/radioactivity; filed as Kd, often an IC50 or EC50 that approximates it; bounds were set here for any values at or beyond the usual limits of such assays
- STATED_CONDITIONS: source organism: Dengue virus 3 Martinique/1243/1999
EXPERIMENTAL_ENDPOINT: Kd

Value wanted: Kd (HLA-A*30:02) of entry KAELEEGVY
≥ 52.8 µM

Value wanted: Kd (HLA-A*30:02) of entry EMCDDTVTY
≥ 76.9 µM

Value wanted: Kd (HLA-A*30:02) of entry STTEAILPEY
≥ 61.2 µM

* * *

- MEASURED_ON: HLA-B*35:01
- ASSAY_NAME: IEDB peptide-MHC binding, purified MHC/competitive/radioactivity; filed as Kd, often an IC50 or EC50 that approximates it; bounds were set here for any values at or beyond the usual limits of such assays
- STATED_CONDITIONS: source organism: Vaccinia virus Copenhagen
EXPERIMENTAL_ENDPOINT: pKd
Just so you know, pKd here is -log10 of the concentration in molar units; reply with that number alone.

Bench note: what pKd did FLTSVINRV show?
4.72

* * *

- MEASURED_ON: HLA-B*15:17
- ASSAY_NAME: IEDB peptide-MHC binding, purified MHC/competitive/fluorescence; filed as Kd, often an IC50 or EC50 that approximates it; bounds were set here for any values at or beyond the usual limits of such assays
- STATED_CONDITIONS: source organism: Brucella abortus S19
EXPERIMENTAL_ENDPOINT: pKd
Just so you know, pKd here is -log10 of the concentration in molar units; reply with that number alone.

Bench note: what pKd did YWMGGTTYF show?
5.99

* * *

- MEASURED_ON: HLA-B*18:01
- ASSAY_NAME: IEDB peptide-MHC binding, purified MHC/direct/fluorescence; filed as Kd, often an IC50 or EC50 that approximates it; bounds were set here for any values at or beyond the usual limits of such assays
- STATED_CONDITIONS: source organism: dengue virus type 1
EXPERIMENTAL_ENDPOINT: Kd (nM)
Give just the number in nM; leave the unit off.

Bench note: what Kd did MEVQLIRQM show?
1.5

* * *

- MEASURED_ON: HLA-B*44:02
- ASSAY_NAME: IEDB peptide-MHC binding, purified MHC/competitive/fluorescence; filed as Kd, often an IC50 or EC50 that approximates it; bounds were set here for any values at or beyond the usual limits of such assays
- STATED_CONDITIONS: source organism: Vibrio cholerae
EXPERIMENTAL_ENDPOINT: Kd

Bench note: what Kd did TRAPAPFPL show?
≥ 5 µM

* * *

- MEASURED_ON: HLA-B*15:01
- ASSAY_NAME: IEDB peptide-MHC binding, purified MHC/competitive/fluorescence; filed as Kd, often an IC50 or EC50 that approximates it; bounds were set here for any values at or beyond the usual limits of such assays
- STATED_CONDITIONS: source organism: Human immunodeficiency virus 1
EXPERIMENTAL_ENDPOINT: Kd (µM)
Give just the number in µM; leave the unit off.

Value wanted: Kd (HLA-B*15:01) of entry RSLFNTIAVLY
3.66

* * *

- MEASURED_ON: HLA-A*26:01
- ASSAY_NAME: IEDB peptide-MHC binding, purified MHC/competitive/fluorescence; filed as Kd, often an IC50 or EC50 that approximates it; bounds were set here for any values at or beyond the usual limits of such assays
- STATED_CONDITIONS: source organism: Yersinia pestis Nepal516
EXPERIMENTAL_ENDPOINT: pKd
Just so you know, pKd here is -log10 of the concentration in molar units; reply with that number alone.

Bench note: what pKd did RTLDTLALY show?
5.35

* * *

- MEASURED_ON: HLA-B*35:01
- ASSAY_NAME: IEDB peptide-MHC binding, purified MHC/competitive/fluorescence; filed as Kd, often an IC50 or EC50 that approximates it; bounds were set here for any values at or beyond the usual limits of such assays
- STATED_CONDITIONS: source organism: Vaccinia virus WR
EXPERIMENTAL_ENDPOINT: pKd
Just so you know, pKd here is -log10 of the concentration in molar units; reply with that number alone.

Bench note: what pKd did ITMVNSLTY show?
6.54

* * *

- MEASURED_ON: HLA-B*51:01
- ASSAY_NAME: IEDB peptide-MHC binding, purified MHC/direct/fluorescence; filed as Kd, often an IC50 or EC50 that approximates it; bounds were set here for any values at or beyond the usual limits of such assays
- STATED_CONDITIONS: source organism: Amur virus
EXPERIMENTAL_ENDPOINT: Kd

Value wanted: Kd (HLA-B*51:01) of entry VPGFHGWAT
≥ 20 µM

* * *

- MEASURED_ON: HLA-A*24:03
- ASSAY_NAME: IEDB peptide-MHC binding, purified MHC/competitive/fluorescence; filed as Kd, often an IC50 or EC50 that approximates it; bounds were set here for any values at or beyond the usual limits of such assays
- STATED_CONDITIONS: source organism: Entamoeba histolytica HM-1:IMSS
pKd: −log10 of the molar value.
EXPERIMENTAL_ENDPOINT: pKd

Bench note: what pKd did EVRKAIEFV show?
≤ 4.70

* * *

- MEASURED_ON: HLA-B*15:01
- ASSAY_NAME: IEDB peptide-MHC binding, purified MHC/competitive/fluorescence; bounds were set here for any values at or beyond the usual limits of such assays
- STATED_CONDITIONS: source organism: Zaire ebolavirus
Could you please report measured pIC50 for the items listed next?
Just so you know, pIC50 here is -log10 of the concentration in molar units; reply with that number alone.

Bench note: what pIC50 did RATTELRTF show?
4.26

Bench note: what pIC50 did RDRFKRTSF show?
4.44

Bench note: what pIC50 did LLQLNETIY show?
5.50

* * *

- MEASURED_ON: HLA-B*08:01
- ASSAY_NAME: IEDB peptide-MHC binding, purified MHC/competitive/radioactivity; filed as Kd, often an IC50 or EC50 that approximates it; bounds were set here for any values at or beyond the usual limits of such assays
- STATED_CONDITIONS: source organism: Dengue virus 1 Brazil/97-11/1997
EXPERIMENTAL_ENDPOINT: pKd
Just so you know, pKd here is -log10 of the concentration in molar units; reply with that number alone.

Value wanted: pKd (HLA-B*08:01) of entry MQRKHGGML
6.77
